Biological target: LHRH binding sites on EFO-27 human ovarian cancer cells (human)
Assay: competition with [125I-Tyr8]BRU-2477 on EFO-27 cells
Non-standard residues stand in square brackets, D forms with d. Bpa = N[C@@H](Cc1ccc(C(=O)c2ccccc2)cc1)C(=O)O; d2Nal = N[C@H](Cc1ccc2ccccc2c1)C(=O)O; DO3A10CM = not defined here; Bpa4 = non-natural residue; Ppt4 = not defined here; Tha = not defined here; azaGly = NNC(=O)O; Sar = CNCC(=O)O
assay.endpoint: log10 of EC50 (log10 of the value in nM)

binder: DO3A10CM-[d2Nal]RWSH[dR]W[Bpa4][Ppt4][azaGly]-NH2 (reading uncertain) [BRU-2953]
recorded.number: 2.81

binder: DO3A10CM-[Sar][Tha]WSH[dR]W[Bpa]P[azaGly]-NH2 (reading uncertain) [BRU-2768]
recorded.number: 4.11

binder: DO3A10CM-[d2Nal]RWSR[dW]W[Bpa]P[azaGly]-NH2 (reading uncertain) [BRU-3001]
recorded.number: 3.52

binder: XHWSHXWXPX (AA1 Mephe; AA6 Darg; AA8 Bpa4; AA10 azaGly-NH2) [BRU-2734]
recorded.number: 2.18

binder: XHWSHXWXPX (DO3A10CM on N-terminus; AA1 Meala; AA6 Darg; AA8 Bpa4; AA10 azaGly-NH2) [BRU-2736]
recorded.number: 3.15

binder: XRXSHXWXPX (DO3A10CM on N-terminus; AA1 Dnal2; AA3 Nal2; AA6 Darg; AA8 Bpa4; AA10 azaGly-NH2) [BRU-3105]
recorded.number: 2.34

binder: XHWSHXWXPX (AA1 Ac-Amfe4 with (DO3A10CM) as printed; AA6 Darg; AA8 Bpa4; AA10 azaGly-NH2) [BRU-2881]
recorded.number: 3.14
